Biological target: Activated CDC42 kinase 1 (Homo sapiens) (UniProt Q07912)
Sequence (Q07912 whole entry, looked up): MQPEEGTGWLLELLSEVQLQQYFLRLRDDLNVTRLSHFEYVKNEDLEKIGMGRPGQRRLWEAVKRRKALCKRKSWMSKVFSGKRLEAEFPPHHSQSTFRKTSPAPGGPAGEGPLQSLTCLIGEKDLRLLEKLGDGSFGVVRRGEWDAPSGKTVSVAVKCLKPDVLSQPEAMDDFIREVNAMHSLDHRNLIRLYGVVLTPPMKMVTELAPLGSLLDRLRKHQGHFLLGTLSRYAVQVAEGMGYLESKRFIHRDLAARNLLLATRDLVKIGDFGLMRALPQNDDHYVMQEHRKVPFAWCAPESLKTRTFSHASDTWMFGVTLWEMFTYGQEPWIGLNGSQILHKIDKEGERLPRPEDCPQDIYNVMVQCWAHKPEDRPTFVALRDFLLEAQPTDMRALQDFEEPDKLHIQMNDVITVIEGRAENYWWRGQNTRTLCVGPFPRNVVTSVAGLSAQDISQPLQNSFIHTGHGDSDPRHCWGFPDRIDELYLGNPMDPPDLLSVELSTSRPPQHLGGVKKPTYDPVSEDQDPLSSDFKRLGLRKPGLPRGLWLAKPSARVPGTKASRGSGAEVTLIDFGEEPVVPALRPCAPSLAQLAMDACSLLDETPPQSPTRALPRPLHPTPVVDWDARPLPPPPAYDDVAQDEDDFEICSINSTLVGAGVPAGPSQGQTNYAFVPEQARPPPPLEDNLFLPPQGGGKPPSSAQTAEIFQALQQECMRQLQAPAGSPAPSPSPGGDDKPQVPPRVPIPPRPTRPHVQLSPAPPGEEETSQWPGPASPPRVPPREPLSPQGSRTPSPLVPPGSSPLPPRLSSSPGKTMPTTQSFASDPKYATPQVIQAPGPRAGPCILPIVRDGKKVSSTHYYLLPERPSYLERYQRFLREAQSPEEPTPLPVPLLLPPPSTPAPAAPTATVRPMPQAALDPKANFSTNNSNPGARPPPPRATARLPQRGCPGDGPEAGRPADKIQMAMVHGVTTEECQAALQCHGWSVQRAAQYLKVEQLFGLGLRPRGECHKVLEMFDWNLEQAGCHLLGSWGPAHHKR
Conditions: at 1 µM
Description: GSK_PKIS: TNK2 mean inhibition at 1 uM [Nanosyn]
Metric Name: inhibition (%)
Could you give me the number in %? Just the number is fine.

For `CCn1c(-c2nonc2N)nc2c(N3CCCC3)nccc21` the molecule record lists inhibition as -0.6

Item: `NC(=O)c1cccc(Nc2nccc(Nc3cccc4[nH]ncc34)n2)c1` | inhibition: 47.8

For reference, reported inhibition for `Fc1cccc(COc2ccc(Nc3ncnc4sc(-c5cccs5)cc34)cc2Cl)c1` stands at 1.13

Item: `COc1ccc(-c2nn3ncccc3c2-c2ccnc(Nc3ccc(Cl)c(C(F)(F)F)c3)n2)cc1` | inhibition: 1.6

The measured inhibition associated with `Cn1cc(C=C2C(=O)Nc3cccnc32)c2ccccc21` reads 1.72

Data point: `CS(=O)(=O)CCNCc1ccc(-c2ccc3ncnc(Nc4ccc(OCc5cccc(F)c5)c(C(F)(F)F)c4)c3c2)o1` ; inhibition = 1.13

inhibition for `NS(=O)(=O)c1cccc(-c2ccc3c(NC(=O)C4CC4)n[nH]c3c2)c1` is 0.27

Noted for `CN(C)c1cc2c(Nc3ccc4nc(Cc5ccccc5)[nH]c4c3)ncnc2cn1` : its inhibition reads 4.65

// sample COc1ccc2cc(-c3c(-c4ccncc4)nc(-c4ccc([S+](C)[O-])cc4)n3C)ccc2c1 (stereo not given) , its inhibition was 0.47

Sure, the documented inhibition for `NS(=O)(=O)c1ccc(N/N=C2\C(=O)Nc3ccc(C(=O)NCCc4c[nH]cn4)cc32)cc1` is 2.72

The reported inhibition of the molecule `O=C(Nc1n[nH]c2nc(-c3ccco3)c(Br)cc12)C1CC1` was 0.24

The recorded inhibition for entry `Cc1nnc(-c2ccc(C)c(-c3ccc(C(=O)Nc4cccc(C#N)c4)cc3)c2)o1` equals 2

Measured inhibition of `COc1cc(C=NNc2ncnc3c2cnn3-c2ccccc2)ccc1O` : 5.3

Lab book: inhibition of `COc1cc2c(cc1Nc1nc(N3CCc4ccccc43)c3cc[nH]c3n1)N(C(=O)CN(C)C)CC2` noted as 1.93

Note to self: inhibition recorded for `CCn1c(-c2nonc2N)nc2c(C#CC(C)(C)O)nc(OC[C@@H](N)c3ccccc3)cc21` was 5.21

# inhibition (molecule: `Cc1nn(C)c2cc(N(C)c3ccnc(Nc4cccc(S(N)(=O)=O)c4)n3)ccc12` ) is 10.2

Lookup result for `c1cnn2ncc(-c3ccnc(Nc4ccc5c(c4)OCCO5)n3)c2c1` ; measured inhibition: 21.7

The reported inhibition of the molecule `CS(=O)(=O)CCN(CC#N)Cc1ccc(-c2ccc3ncnc(Nc4ccc(OCc5cccc(F)c5)c(Cl)c4)c3c2)o1` was 0.01

The recorded inhibition for entry `COc1cc2ncn(-c3cc(O[C@@H](C)c4ccccc4Cl)c(C(N)=O)s3)c2cc1OC` equals 6.07

Field inhibition (entry `COc1ccc(-c2ccncc2)cc1C(N)=O` ) reads 2.39
